Tested on: RXF 393;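 also: growth inhibition of human RXF 393 cells, read out with a cell viability assay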
Experiment: cells
Type: functional, cell-based
Details: Homo sapiens
Description: SANGER: Inhibition of human RXF393 cell growth in a cell viability assay.
As shown below, each of these compounds has a reported log10(IC50) value.
log10 IC50, nM

1. CC[C@@]1(O)C(=O)OCc2c1cc1n(c2=O)Cc2cc3ccccc3nc2-1 : 0.67

[ask] Fill blank: measured log10(IC50) of the compound CC(=O)c1c(C)c2cnc(Nc3ccc(N4CCNCC4)cn3)nc2n(C2CCCC2)c1=O is ____.
[reply] 2.91

[ask] Fill blank: measured log10(IC50) of the compound Cc1nc(Nc2ncc(C(=O)Nc3c(C)cccc3Cl)s2)cc(N2CCN(CCO)CC2)n1 is ____.
[reply] 1.37

[ask] Fill blank: measured log10(IC50) of the compound Cc1n[nH]c2ccc(-c3cncc(OC[C@@H](N)Cc4c[nH]c5ccccc45)c3)cc12 is ____.
[reply] 2.82

[ask] Fill blank: measured log10(IC50) of the compound Fc1cc(-c2cc[nH]/c(=N/c3ccc(-n4cnc(N5CCOCC5)n4)cc3)n2)cc(N2CCOCC2)c1 is ____.
[reply] 1.83

====

As shown below, each of these molecules has a reported pIC50 value.
Test system: HT-29;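 also: growth inhibition of human HT-29 cells, read out by a cell viability assay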
Test: cells
Format: functional, cell-based
Settings: Homo sapiens
Description: SANGER: Inhibition of human HT-29 cell growth in a cell viability assay.
Lab note — pIC50 values are minus log10 of concentrations in M.

Please review the following examples before continuing.
1) CC[C@@]1(O)C(=O)OCc2c1cc1n(c2=O)Cc2cc3ccccc3nc2-1 : 7.07
2) CC(C)=CC[C@@H](O)C1=CC(=O)c2c(O)ccc(O)c2C1=O : 6.19

[ask] Fill blank: measured pIC50 of the molecule O=c1[nH]c2ccccc2n1C1CCN(Cc2ccc(-c3nc4cc5[nH]cnc5cc4nc3-c3ccccc3)cc2)CC1 is ____.
[reply] 5.61

====

System: H9
Experiment: cells
Assay type: functional, cell-based
Settings: Homo sapiens
Description: SANGER: Inhibition of human H9 cell growth in a cell viability assay.
readout.kind: IC50 (nM)
Record the value in nM, omitting the unit from your answer.

[ask] Fill blank: measured IC50 of the compound CC[C@@]1(O)C(=O)OCc2c1cc1n(c2=O)Cc2cc3ccccc3nc2-1 [CAMPTOTHECIN] is ____.
[reply] 0.358

====

Tested on: NCI-H2087;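 also: growth inhibition determined with a cell viability readout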
Test: cells
Format: functional, cell-based
Conditions: Homo sapiens
Description: SANGER: Inhibition of human NCI-H2087 cell growth in a cell viability assay.
readout.kind: IC50 (nM)
Record the value in nM, omitting the unit from your answer.

[ask] Fill blank: measured IC50 of the compound CC[C@]1(O)C[C@@H]2CN(CCc3c([nH]c4ccccc34)[C@@](C(=O)OC)(c3cc4c(cc3OC)N(C)[C@H]3[C@@](O)(C(=O)OC)[C@H](OC(C)=O)[C@]5(CC)C=CCN6CC[C@]43[C@@H]65)C2)C1 is ____.
[reply] 30.5

====

As shown below, each of these molecules has a reported pIC50 value.
Test system: DEL
Assay: cells
Format: functional, cell-based
Details: Homo sapiens
Description: SANGER: Inhibition of human DEL cell growth in a cell viability assay.
Lab note — pIC50 values are minus log10 of concentrations in M.

1) Cn1c(=O)n(-c2ccc(C(C)(C)C#N)cc2)c2c3cc(-c4cnc5ccccc5c4)ccc3ncc21 : 7.69
2) C[C@]12O[C@H](C[C@]1(O)CO)n1c3ccccc3c3c4c(c5c6ccccc6n2c5c31)CNC4=O : 7.33

API: the following record is the query input.
[ask] Fill blank: measured pIC50 of the molecule C/C=C(/C)C(=O)O[C@H]1C(C)=C2[C@H]([C@@H]1OC(=O)CCCCCCC)[C@@](C)(OC(C)=O)C[C@H](OC(=O)CCC)[C@@]1(O)[C@H]2OC(=O)[C@@]1(C)O is ____.
[reply] 7.99

====

System: UMUC3
Assay: cells
Assay type: functional, cell-based
Details: Homo sapiens
Description: SANGER: Inhibition of human UM-UC-3 cell growth in a cell viability assay.
readout.kind: pIC50
Lab note — pIC50 values are minus log10 of concentrations in M.

1. Fc1cc(-c2cc[nH]/c(=N/c3ccc(-n4cnc(N5CCOCC5)n4)cc3)n2)cc(N2CCOCC2)c1 : 5.90

API: the following record is the query input.
[ask] Fill blank: measured pIC50 of the compound NC(=O)c1ncn([C@@H]2O[C@H](COP(=O)(O)O)[C@@H](O)[C@H]2O)c1N is ____.
[reply] 2.76

====

System: KYSE-140;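 also: cell viability assay measuring growth inhibition in human KYSE-140 cells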
Test: cells
Type: functional, cell-based
Settings: Homo sapiens
Description: SANGER: Inhibition of human KYSE-140 cell growth in a cell viability assay.
readout.kind: IC50 (µM)
Record the value in µM, omitting the unit from your answer.

1) CC[C@]1(O)C[C@@H]2CN(CCc3c([nH]c4ccccc34)[C@@](C(=O)OC)(c3cc4c(cc3OC)N(C)[C@H]3[C@@](O)(C(=O)OC)[C@H](OC(C)=O)[C@]5(CC)C=CCN6CC[C@]43[C@@H]65)C2)C1 : 0.0449
2) COc1cc(Nc2c(C#N)cnc3cc(OCCCN4CCN(C)CC4)c(OC)cc23)c(Cl)cc1Cl : 1.76
3) NC(=O)c1ncn([C@@H]2O[C@H](COP(=O)(O)O)[C@@H](O)[C@H]2O)c1N : 1730

API: the following record is the query input.
[ask] Fill blank: measured IC50 of the compound CO[C@@]12[C@H](COC(N)=O)C3=C(C(=O)C(C)=C(N)C3=O)N1C[C@@H]1N[C@@H]12 is ____.
[reply] 0.381

====

Tested on: JVM-2;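 also: growth inhibition of JVM-2 cells determined by a cell viability assay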
Test: cells
Assay type: functional, cell-based
Settings: Homo sapiens
Description: SANGER: Inhibition of human JVM-2 cell growth in a cell viability assay.
pIC50: −log10 of the molar value.
readout.kind: pIC50

1) CO[C@@]12[C@H](COC(N)=O)C3=C(C(=O)C(C)=C(N)C3=O)N1C[C@@H]1N[C@@H]12 [MITOMYCIN] : 6.40
2) CC[C@@]1(O)C(=O)OCc2c1cc1n(c2=O)Cc2cc3ccccc3nc2-1 [CAMPTOTHECIN] : < 7.00
3) C/C(O)=C(\C#N)C(=O)Nc1cc(Br)ccc1Br : < 4.80

[ask] Fill blank: measured pIC50 of the compound Cc1nc(Nc2ncc(C(=O)Nc3c(C)cccc3Cl)s2)cc(N2CCN(CCO)CC2)n1 [DASATINIB] is ____.
[reply] < 5.89

====

As shown below, each of these molecules has a reported log10(IC50) value.
Test system: NCI-H1770;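 also: growth inhibition of NCI-H1770 cells determined with a viability readout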
Assay: cells
Assay type: functional, cell-based
Conditions: Homo sapiens
Description: SANGER: Inhibition of human NCI-H1770 cell growth in a cell viability assay.
log10 IC50, nM

1) CC(=O)c1c(C)c2cnc(Nc3ccc(N4CCNCC4)cn3)nc2n(C2CCCC2)c1=O : 2.97
2) CC[C@]1(O)C[C@@H]2CN(CCc3c([nH]c4ccccc34)[C@@](C(=O)OC)(c3cc4c(cc3OC)N(C)[C@H]3[C@@](O)(C(=O)OC)[C@H](OC(C)=O)[C@]5(CC)C=CCN6CC[C@]43[C@@H]65)C2)C1 : 1.45

[ask] Fill blank: measured log10(IC50) of the molecule C/C=C(/C)C(=O)O[C@H]1C(C)=C2[C@H]([C@@H]1OC(=O)CCCCCCC)[C@@](C)(OC(C)=O)C[C@H](OC(=O)CCC)[C@@]1(O)[C@H]2OC(=O)[C@@]1(C)O is ____.
[reply] 1.41

[ask] Fill blank: measured log10(IC50) of the molecule CO[C@@]12[C@H](COC(N)=O)C3=C(C(=O)C(C)=C(N)C3=O)N1C[C@@H]1N[C@@H]12 is ____.
[reply] 2.54

[ask] Fill blank: measured log10(IC50) of the molecule Fc1cc(-c2cc[nH]/c(=N/c3ccc(-n4cnc(N5CCOCC5)n4)cc3)n2)cc(N2CCOCC2)c1 is ____.
[reply] 2.91

====

Tested on: NB17
Assay: cells
Assay type: functional, cell-based
Settings: Homo sapiens
Description: SANGER: Inhibition of human NB17 cell growth in a cell viability assay.
readout.kind: IC50

Please review the following examples before continuing.
1) COc1cc(Nc2c(C#N)cnc3cc(OCCCN4CCN(C)CC4)c(OC)cc23)c(Cl)cc1Cl [BOSUTINIB] : > 2 µM
2) CCn1c(-c2nonc2N)nc2cnc(Oc3cccc(NC(=O)c4ccc(OCCN5CCOCC5)cc4)c3)cc21 [GSK-269962A] : > 2.5 µM
3) Cn1c(=O)n(-c2ccc(C(C)(C)C#N)cc2)c2c3cc(-c4cnc5ccccc5c4)ccc3ncc21 [DACTOLISIB] : 0.722 µM
4) CCNc1cc(N[C@H]2CC[C@@H](O)CC2)nc(Nc2ccc3c(ccn3Cc3ccccc3)c2)n1 : > 5.12 µM
5) COc1cc(C)c(Sc2cnc(NC(=O)c3ccc(CNC(C)C(C)(C)C)cc3)s2)cc1C(=O)N1CCN(C(C)=O)CC1 (stereo unspecified) : 8.92 µM

[ask] Form: Entry = C[C@]1(c2nc3c(C(N)=O)cccc3[nH]2)CCCN1 [VELIPARIB] | System = NB17 | IC50 = ____
[reply] > 5 µM

====

As shown below, each of these compounds has a reported pIC50 value.
System: JIYOYE
Assay: cells
Type: functional, cell-based
Conditions: Homo sapiens
Description: SANGER: Inhibition of human JiyoyeP-2003 cell growth in a cell viability assay.
pIC50: −log10 of the molar value.

1) Cc1[nH]c(/C=C2\C(=O)Nc3ccc(S(=O)(=O)Cc4c(Cl)cccc4Cl)cc32)c(C)c1C(=O)N1CCC[C@@H]1CN1CCCC1 [PHA-665752] : < 5.70

API: the following record is the query input.
[ask] Fill blank: measured pIC50 of the compound N#C/C(=C1/Nc2ccccc2S1)c1ccnc(NCCc2cccnc2)n1 is ____.
[reply] < 5.10

// data source = ChEMBL document CHEMBL1201861
